System: Panc-1 cells
Assay: Inhibition of proliferation of Panc-1 cells
Type: cell-based
Conditions: Homo sapiens, read-out: ID50 (the source's name)
Readout: IC50 (µM)
Give the value in µM but do not write µM after it.

Name the reported IC50 value associated with the molecule Nc1ccn([C@@H]2O[C@H](CO)[C@@H](O)C2(F)F)c(=O)n1 [dFdC, 2′.2′-difluoro 2′-deoxycytidine]
12.2
